Provide the reported protein stability index of each item.
B1: KLHL12 (parent)
chain: LDYTADEDGVWYSVAPMNVRRGLA

# Variants of: B1
# ASSAY METHOD TEXT: protein stability index of a GFP-peptide fusion (GPS, HEK-293T) (PSI 1-6); higher = more stable;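 note: lentivirally expressed fusions sorted by FACS into six bins by GFP to DsRed ratio, PSI derived from sequencing read proportions per bin multiplied by bin number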
# ASSAY SETUP: c terminus: a fixed tail appended
Format: numeric value only, no unit, no commentary.

Record request: protein stability index value, item `P16E` 3.28

protein stability index lookup needed for `A15H` , thanks. 1.7

Item `A5V` has what recorded protein stability index? 2.02

If you can, please state the reported protein stability index value of `V10S` . 2.2

Entry `W11G` has what protein stability index? 3.69

# protein stability index lookup, item `D8M` 1.93

Return reported protein stability index; argument: `W11H` 3.05

protein stability index lookup needed for `G9E` , thanks. 2.33

State the recorded protein stability index for this entry: `D2L` 1.55

Can you share its protein stability index? I mean this variant: `A5R` 2.15

Quick check: protein stability index of `T4Q` ? 2.45

Please give the measured protein stability index for this variant: `N18Q` 1.58

Form field: reported protein stability index of `V14W` 2

// returns reported protein stability index for input `P16A` 2.33

I'd like to know its protein stability index. The variant in question is `L23M` 2.38

I'd like to know its protein stability index. The variant in question is `V19F` 1.78

Any idea what its protein stability index is? The variant is `V10N` 3.06

Data request, read-out protein stability index, for `D2A` 2.3

# protein stability index lookup, item `R21Q` 1.71

Dear colleague, I am looking for the recorded protein stability index of the following variant: `A24K` 2.35

// returns reported protein stability index for input `T4K` 2.57

protein stability index for `R21C` ? 2.63

Which value of protein stability index has been reported for `A5M` in the records? 2.05

# lookup: protein stability index of `A24D` 1.82
